# system name: recombinant human CTLA-4 protein (human) (UniProt P16410)
# Sequence (P16410 36-161 limits assumed): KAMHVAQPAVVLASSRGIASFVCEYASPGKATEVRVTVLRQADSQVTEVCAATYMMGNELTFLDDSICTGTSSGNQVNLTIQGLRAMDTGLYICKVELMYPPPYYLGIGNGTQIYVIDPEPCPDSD
# protocol details: SPR (Pioneer FE, OneStep), 25 C; 3xFLAG scFv captured by anti-FLAG M2, human CTLA-4 as analyte
measured parameter: Kd

{"binder": "78-24D17 scFv (scFv, part only; not given: Linker, domain order, 3xFLAG tag, V domains shown, not shown: another chain or arm of the molecule; small tags and cut ends) VH: EVQLVESGGGLVQPGGSLRLSCAASGFTFSSSSMHWVRQAPGKGLEWVSGISGSGGSTSYADSVKGRFTISRDNSKNTLYLQMNSLRAEDTAVYYCARYLMSFNLTRTSWFDVWGQGTLVTVSS VL: DIQMTQSPSSLSASVGDRVTITCQASQAISNYLNWYQQKPGKAPKLLIYDASNLETGVPSRFSGSGSGTDFTFTISSLQPEDIATYYCQQGDAWPWTFGQGTKVEIK", "obs value": "0.87 nM"}
{"binder": "78-8D7 scFv (scFv, part only; not given: Linker, domain order, 3xFLAG tag, V domains shown, not shown: another chain or arm of the molecule; small tags and cut ends) VH: EVQLVESGGGLVQPGGSLRLSCAASGFTFSSYVMHWVRQAPGKGLEWVSAISWSGAGTYYADSVKGRFTISRDNSKNTLYLQMNSLRAEDTAVYYCARGRLFGRALYGEAFDVWGQGTLVTVSS VL: DIQMTQSPSSLSASVGDRVTITCQASKDISIYLNWYQQKPGKAPKLLIYDAFNLETGVSSRFSGSGSGTDFTFTISSLQPEDIATYYCQQFNSFPLTFGQGTKVEIK", "obs value": "0.3 nM"}
